# tissue uptake at 120 h listing for each entry below
assay: Biodistribution of 177Lu-labeled αMSH analogues in mice bearing SK-MEL-1 human melanoma; settings: male, NRG (NOD.Cg-Rag1tm1Mom Il2rgtm1Wjl/SzJ), mouse, blood, total radioactivity
I only need the number, in %ID/g, no unit after it.

# molecule, tissue uptake at 120 h / %ID/g
measured = [
    ("CCCC[C@H](NC(=O)CN1CCC(NC(=O)[C@H](CCCCNC(=O)CN2CCN(CC(=O)O)CCN(CC(=O)O)CCN(CC(=O)O)CC2)NC(=O)CNC(=O)CCCc2ccc(-c3ccc(C)cc3)cc2)CC1)C(=O)N[C@H]1CC(=O)NCCCC[C@@H](C(N)=O)N(C)C(=O)[C@H](Cc2c[nH]c3ccccc23)NC(=O)[C@H](CCCNC(=N)N)N(C)C(=O)[C@@H](Cc2ccccc2)NC(=O)[C@H](Cc2c[nH]cn2)NC1=O [^177Lu-labeled CCZ01158, metal not drawn]", 0.04),
]

Task: Report measured tissue uptake at 120 h; entry is CCCC[C@H](NC(=O)CN1CCC(NC(=O)[C@H](CCCCNC(=O)CN2CCN(CC(=O)O)CCN(CC(=O)O)CCN(CC(=O)O)CC2)NC(=O)CNC(=O)CCCc2ccc(I)cc2)CC1)C(=O)N[C@H]1CC(=O)NCCCC[C@@H](C(N)=O)N(C)C(=O)[C@H](Cc2c[nH]c3ccccc23)NC(=O)[C@H](CCCNC(=N)N)N(C)C(=O)[C@@H](Cc2ccccc2)NC(=O)[C@H](Cc2c[nH]cn2)NC1=O [^177Lu-labeled CCZ01148, metal not drawn]
Output: 1.93

Task: Report measured tissue uptake at 120 h; entry is CCCC[C@H](NC(=O)CN1CCC(NC(=O)[C@H](CCCCNC(=O)CN2CCN(CC(=O)O)CCN(CC(=O)O)CCN(CC(=O)O)CC2)NC(=O)[C@H](CCC(=O)O)NC(=O)CCCc2ccc(I)cc2)CC1)C(=O)N[C@H]1CC(=O)NCCCC[C@@H](C(N)=O)N(C)C(=O)[C@H](Cc2c[nH]c3ccccc23)NC(=O)[C@H](CCCNC(=N)N)N(C)C(=O)[C@@H](Cc2ccccc2)NC(=O)[C@H](Cc2c[nH]cn2)NC1=O [^177Lu-labeled CCZ01118, metal not drawn]
Output: 0.02

###

test: Biodistribution of 68Ga-labeled peptide in mice bearing B16F10 mouse melanoma; type: in vivo, C57BL/6J mice; details: heart, iv, total radioactivity, 2 h p.i. unblocked, C57BL/6J mice, B16F10 melanoma, read-out: Biodistribution, Heart
measured.metric: tissue uptake at 2 h (%ID/g)
I only need the number, in %ID/g, no unit after it.

Task: Report measured tissue uptake at 2 h; entry is CCCC[C@H](NC(=O)CN1CCC(NC(=O)CN2CCN(CC(=O)O)CCN(CC(=O)O)CCN(CC(=O)O)CC2)CC1)C(=O)N[C@H]1CC(=O)NCCCC[C@@H](C(N)=O)N(C)C(=O)[C@H](Cc2c[nH]c3ccccc23)N(C)C(=O)[C@H](CCCNC(=N)N)N(C)C(=O)[C@@H](Cc2ccccc2)NC(=O)[C@H](Cc2c[nH]cn2)N(C)C1=O [^68Ga-labeled CCZ01099, metal not drawn]
Output: 0.08

###

Test: Biodistribution of 177Lu-labeled αMSH analogues in mice bearing B16F10 mouse melanoma
Assay type: in vivo, C57BL/6J mice
Details: mouse, stomach, iv, total radioactivity; 4 h p.i., C57BL/6J mice, B16F10 melanoma; read-out: Biodistribution, Stomach
Experimental: The B16-F10 mouse melanoma cells were cultured and inoculated in mice as described in Example 1. For biodistribution studies, approximately 1-2 MBq of ^177Lu-labeled αMSH analogues via tail vein under anesthesia. At 1, 4, 24, and 120 h p.i., the mice were euthanized by CO2 inhalation. Organs/tissues were harvested and the radioactivity was measured as described in Example 1.
# tissue uptake at 4 h listing for each entry below
I only need the number, in %ID/g, no unit after it.

Take a look at these entries with their results.
# compound, tissue uptake at 4 h [%ID/g]
data = [
    ("CCCC[C@H](NC(=O)CN1CCC(NC(=O)[C@H](CCCCNC(=O)CN2CCN(CC(=O)O)CCN(CC(=O)O)CCN(CC(=O)O)CC2)NC(=O)[C@H](CCC(=O)O)NC(=O)CCCc2ccc(I)cc2)CC1)C(=O)N[C@H]1CC(=O)NCCCC[C@@H](C(N)=O)N(C)C(=O)[C@H](Cc2c[nH]c3ccccc23)NC(=O)[C@H](CCCNC(=N)N)N(C)C(=O)[C@@H](Cc2ccccc2)NC(=O)[C@H](Cc2c[nH]cn2)NC1=O [^177Lu-labeled CCZ01118, metal not drawn]", 2.33),
    ("CCCC[C@H](NC(=O)CN1CCC(NC(=O)[C@H](CCCCNC(=O)CN2CCN(CC(=O)O)CCN(CC(=O)O)CCN(CC(=O)O)CC2)NC(=O)[C@H](CCC(=O)O)NC(=O)CCCc2ccc(I)cc2)CC1)C(=O)N[C@H]1CC(=O)NCCCC[C@@H](C(N)=O)NC(=O)[C@H](Cc2c[nH]c3ccccc23)NC(=O)[C@H](CCCNC(=N)N)NC(=O)[C@@H](Cc2ccccc2)NC(=O)[C@H](Cc2c[nH]cn2)NC1=O [^177Lu-labeled CCZ01082, metal not drawn]", 1.65),
    ("CCCC[C@H](NC(=O)CN1CCC(NC(=O)[C@H](CCCCNC(=O)CN2CCN(CC(=O)O)CCN(CC(=O)O)CCN(CC(=O)O)CC2)NC(=O)[C@H](CCC(=O)O)NC(=O)CCCc2ccc(I)cc2)CC1)C(=O)N[C@H]1CC(=O)NCCCC[C@@H](C(N)=O)N(C)C(=O)[C@H](Cc2c[nH]c3ccccc23)N(C)C(=O)[C@H](CCCNC(=N)N)N(C)C(=O)[C@@H](Cc2ccccc2)NC(=O)[C@H](Cc2c[nH]cn2)N(C)C1=O [^177Lu-labeled CCZ01088, metal not drawn]", 0.26),
    ("CCCC[C@H](NC(=O)CN1CCC(NC(=O)CN2CCN(CC(=O)O)CCN(CC(=O)O)CCN(CC(=O)O)CC2)CC1)C(=O)N[C@H]1CC(=O)NCCCC[C@@H](C(N)=O)NC(=O)[C@H](Cc2c[nH]c3ccccc23)NC(=O)[C@H](CCCNC(=N)N)NC(=O)[C@@H](Cc2ccccc2)NC(=O)[C@H](Cc2c[nH]cn2)NC1=O [^177Lu-labeled CCZ01048, metal not drawn, reference compound]", 0.56),
    ("CCCC[C@H](NC(=O)CN1CCC(NC(=O)CN2CCN(CC(=O)O)CCN(CC(=O)O)CCN(CC(=O)O)CC2)CC1)C(=O)N[C@H]1CC(=O)NCCCC[C@@H](C(N)=O)N(C)C(=O)[C@H](Cc2c[nH]c3ccccc23)NC(=O)[C@H](CCCNC(=N)N)N(C)C(=O)[C@@H](Cc2ccccc2)NC(=O)[C@H](Cc2c[nH]cn2)NC1=O [^177Lu-labeled CCZ01106, metal not drawn]", 0.11),
]

Task: Report measured tissue uptake at 4 h; entry is CCCC[C@H](NC(=O)CN1CCC(NC(=O)CN2CCN(CC(=O)O)CCN(CC(=O)O)CCN(CC(=O)O)CC2)CC1)C(=O)N[C@H]1CC(=O)NCCCC[C@@H](C(N)=O)N(C)C(=O)[C@H](Cc2c[nH]c3ccccc23)N(C)C(=O)[C@H](CCCNC(=N)N)N(C)C(=O)[C@@H](Cc2ccccc2)NC(=O)[C@H](Cc2c[nH]cn2)N(C)C1=O [^177Lu-labeled CCZ01099, metal not drawn]
Output: 0.59
